Test: NCI Yeast Anticancer Drug Screen. Data for the rad50 strain (AID 155);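 also: 0% = growth of vehicle-only cultures of the same strain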
Conditions: S. cerevisiae rad50 strain growth inhibition; at 50.0 µM; hits give high values
Description: Growth inhibition of yeast strains with defined genetic alterations is measured as a screen for potential anti-cancer activity. Selected strains with alterations in DNA damage repair or cell cycle control were exposed to compounds and growth inhibition was measured relative to vehicle treated controls. The strain used in this assay is rad50
The panel holds about 79,000 compounds, 15% with a hit somewhere; the sample as a whole holds those more often. Calls of active or inactive are those of the source. Rule as the data show it: active = growth inhibition above about 70%; inactive = the rest.
result.type: growth inhibition

1. COC(=O)[C@@H](NS(=O)(=O)CC12CCC(CC1)C2(C)C)C(C)(C)C	14.2% (inactive)
2. Cc1ccccc1N=Nc1ccc(N=Nc2ccc(N)nc2N)c(C)c1	31.2% (inactive)
3. C=CCNC(=O)c1ccccc1SC(C)=O	88.9% (active)
4. O=C1/C(=C/c2ccc(Cl)cc2)Sc2scc(-c3cccc([N+](=O)[O-])c3)[n+]21	89.5% (active)
5. O=C1c2ccccc2-n2c1nc1ccccc1c2=O	74% (active)
6. Clc1nc(Cl)c(Cl)c(Cl)n1	64% (inactive)
7. Clc1c(C(Cl)(Cl)Cl)nsc1N1CCCCC1	50.6% (inactive)
8. CN(C)CCNC(=O)Cc1cc(O)c2c(c1O)C(=O)c1ccccc1C2=O	75.3% (active)
9. C=C1C(=O)N2c3ccccc3C(C)(C)C2(S)C(=O)N1C (stereo not drawn)	88.8% (active)
10. CN(C)CCCN=c1c2ccccc2n(O)c2cccc([N+](=O)[O-])c12	72.5% (active)
11. CN(CCN1C(=O)c2cccc3cccc(c23)C1=O)CCN1C(=O)c2cccc3cccc(c23)C1=O	98.5% (active)
12. C=C1C(=O)C23OC2C1CCC(=O)C1(C)CC[C@H](OC(C)=O)C(C)(C)[C@H]1CC3=O (stereo partly drawn)	99.2% (active)
13. CCN(CC)C(=S)Sc1nc2ccccc2s1	34.2% (inactive)
14. O/N=C/c1cc(I)c(O)c(I)c1	98.8% (active)
15. CCO/C(=C\C=O)C1CCC2C3CC=C4CC(OC(C)=O)CCC4(C)C3CCC12C (stereo not drawn)	63.4% (inactive)
16. CCCCCCCCC(Sc1n[nH]c(=O)[nH]c1=O)C(=O)OCC (stereo not drawn)	85.5% (active)
17. CCOC(=O)c1c(CN2CCNCC2)nc2ccc(Cl)cc2c1-c1ccccc1	29.4% (inactive)
18. CC(C)(Cc1nocc1C(C)(C)CC#N)c1cc(CC(C)(C)C2(C)OCCO2)no1	-9.6% (inactive)
19. Cc1cc(NCCCCCCCNc2cc(C)nc3cc([N+](=O)[O-])ccc23)c2ccc([N+](=O)[O-])cc2n1	68.5% (inactive)
20. CC(=O)Oc1cccc2cccnc12	99.2% (active)
21. Cc1cc(/C=C/C2CCC3CC(C)CCC3N2CCO)c(C)n1-c1ccccc1 (stereo not drawn)	99.1% (active)
22. O=C(O)C1(Cc2ccccc2)Cc2cc3c(cc2C1)CCC3	90% (active)
23. O=C1C=CC(=O)C(c2ccc3ccccc3c2)=C1	99% (active)
24. C=C1C(=O)OC2C[C@@]3(C)CCC[C@H](C)C3=CC12 (stereo partly drawn) (tested in a mixture with another compound)	85.2% (active)
25. O=C(CON1C(=O)c2ccccc2C1=O)c1ccccc1	91.2% (active)
26. Nc1ccc2c(n1)NCC/C2=N\Nc1ccccc1	90.5% (active)
27. O=C(CC1(O)C(=O)Nc2ccccc21)c1ccc(Cl)c(Cl)c1 (stereo not drawn)	84% (active)
28. CN(C)c1nc(N)c(C#N)c(C#N)c1C#N	69.6% (inactive)
29. CCOC(=O)c1c[nH]c2cc(C(F)(F)F)ccc2c1=O	52% (inactive)
30. Nc1cc2c(cc1[N+](=O)[O-])[nH]c1c(-c3ccccc3)nccc12	99.2% (active)
31. COC1C(O)C(C)OC(OC2C(Oc3cccc4c(O)c5c(=O)oc6ccc(C)c7c(=O)oc(c34)c5c67)OC(C)C3O[C@H](c4ccccc4)OC32)C1O (stereo partly drawn)	86.5% (active)
32. O=[N+]([O-])C(/C=C(\Cl)[N+](=O)[O-])=C(Nc1ccccc1)Nc1ccccc1	86.8% (active)
33. CC(=O)Nc1c(Cl)c(Cl)c2c(c1Cl)Cc1cc(Cl)ccc1-2	98.2% (active)
34. CC(=O)OCC(=O)[C@H]1CC[C@H]2[C@@H]3CC=C4C[C@@H](O)CC[C@]4(C)[C@H]3CC[C@]12C	89.8% (active)
35. CCOC(=O)C(Cc1ccccc1[N+](=O)[O-])C(=O)OCC	5.4% (inactive)
36. CC(=O)Nc1ccc(S(=O)(=O)N(CCO)CCO)cc1	15.2% (inactive)
37. COC(=O)c1ccc(O)c(OC)c1	-25.2% (inactive)
38. Nc1cc2ccccc2cc1Br	81% (active)
